Entries and their measured IC50 follow.
target: Neurogenic locus notch homolog protein 1 (Mus musculus); assay: Inhibition of recombinant mouse N-terminal FLAG-tagged Notch1 (1704 to 2531 residues) expressed in human LS174T cells assessed as reduction in doxycycline-induced NICD expression after 12 hrs by Bright-Glo luciferase reporter gene assay; type: cell-based; details: read-out: IC50
Sequence (Q01705 whole entry, the tested form may be a part): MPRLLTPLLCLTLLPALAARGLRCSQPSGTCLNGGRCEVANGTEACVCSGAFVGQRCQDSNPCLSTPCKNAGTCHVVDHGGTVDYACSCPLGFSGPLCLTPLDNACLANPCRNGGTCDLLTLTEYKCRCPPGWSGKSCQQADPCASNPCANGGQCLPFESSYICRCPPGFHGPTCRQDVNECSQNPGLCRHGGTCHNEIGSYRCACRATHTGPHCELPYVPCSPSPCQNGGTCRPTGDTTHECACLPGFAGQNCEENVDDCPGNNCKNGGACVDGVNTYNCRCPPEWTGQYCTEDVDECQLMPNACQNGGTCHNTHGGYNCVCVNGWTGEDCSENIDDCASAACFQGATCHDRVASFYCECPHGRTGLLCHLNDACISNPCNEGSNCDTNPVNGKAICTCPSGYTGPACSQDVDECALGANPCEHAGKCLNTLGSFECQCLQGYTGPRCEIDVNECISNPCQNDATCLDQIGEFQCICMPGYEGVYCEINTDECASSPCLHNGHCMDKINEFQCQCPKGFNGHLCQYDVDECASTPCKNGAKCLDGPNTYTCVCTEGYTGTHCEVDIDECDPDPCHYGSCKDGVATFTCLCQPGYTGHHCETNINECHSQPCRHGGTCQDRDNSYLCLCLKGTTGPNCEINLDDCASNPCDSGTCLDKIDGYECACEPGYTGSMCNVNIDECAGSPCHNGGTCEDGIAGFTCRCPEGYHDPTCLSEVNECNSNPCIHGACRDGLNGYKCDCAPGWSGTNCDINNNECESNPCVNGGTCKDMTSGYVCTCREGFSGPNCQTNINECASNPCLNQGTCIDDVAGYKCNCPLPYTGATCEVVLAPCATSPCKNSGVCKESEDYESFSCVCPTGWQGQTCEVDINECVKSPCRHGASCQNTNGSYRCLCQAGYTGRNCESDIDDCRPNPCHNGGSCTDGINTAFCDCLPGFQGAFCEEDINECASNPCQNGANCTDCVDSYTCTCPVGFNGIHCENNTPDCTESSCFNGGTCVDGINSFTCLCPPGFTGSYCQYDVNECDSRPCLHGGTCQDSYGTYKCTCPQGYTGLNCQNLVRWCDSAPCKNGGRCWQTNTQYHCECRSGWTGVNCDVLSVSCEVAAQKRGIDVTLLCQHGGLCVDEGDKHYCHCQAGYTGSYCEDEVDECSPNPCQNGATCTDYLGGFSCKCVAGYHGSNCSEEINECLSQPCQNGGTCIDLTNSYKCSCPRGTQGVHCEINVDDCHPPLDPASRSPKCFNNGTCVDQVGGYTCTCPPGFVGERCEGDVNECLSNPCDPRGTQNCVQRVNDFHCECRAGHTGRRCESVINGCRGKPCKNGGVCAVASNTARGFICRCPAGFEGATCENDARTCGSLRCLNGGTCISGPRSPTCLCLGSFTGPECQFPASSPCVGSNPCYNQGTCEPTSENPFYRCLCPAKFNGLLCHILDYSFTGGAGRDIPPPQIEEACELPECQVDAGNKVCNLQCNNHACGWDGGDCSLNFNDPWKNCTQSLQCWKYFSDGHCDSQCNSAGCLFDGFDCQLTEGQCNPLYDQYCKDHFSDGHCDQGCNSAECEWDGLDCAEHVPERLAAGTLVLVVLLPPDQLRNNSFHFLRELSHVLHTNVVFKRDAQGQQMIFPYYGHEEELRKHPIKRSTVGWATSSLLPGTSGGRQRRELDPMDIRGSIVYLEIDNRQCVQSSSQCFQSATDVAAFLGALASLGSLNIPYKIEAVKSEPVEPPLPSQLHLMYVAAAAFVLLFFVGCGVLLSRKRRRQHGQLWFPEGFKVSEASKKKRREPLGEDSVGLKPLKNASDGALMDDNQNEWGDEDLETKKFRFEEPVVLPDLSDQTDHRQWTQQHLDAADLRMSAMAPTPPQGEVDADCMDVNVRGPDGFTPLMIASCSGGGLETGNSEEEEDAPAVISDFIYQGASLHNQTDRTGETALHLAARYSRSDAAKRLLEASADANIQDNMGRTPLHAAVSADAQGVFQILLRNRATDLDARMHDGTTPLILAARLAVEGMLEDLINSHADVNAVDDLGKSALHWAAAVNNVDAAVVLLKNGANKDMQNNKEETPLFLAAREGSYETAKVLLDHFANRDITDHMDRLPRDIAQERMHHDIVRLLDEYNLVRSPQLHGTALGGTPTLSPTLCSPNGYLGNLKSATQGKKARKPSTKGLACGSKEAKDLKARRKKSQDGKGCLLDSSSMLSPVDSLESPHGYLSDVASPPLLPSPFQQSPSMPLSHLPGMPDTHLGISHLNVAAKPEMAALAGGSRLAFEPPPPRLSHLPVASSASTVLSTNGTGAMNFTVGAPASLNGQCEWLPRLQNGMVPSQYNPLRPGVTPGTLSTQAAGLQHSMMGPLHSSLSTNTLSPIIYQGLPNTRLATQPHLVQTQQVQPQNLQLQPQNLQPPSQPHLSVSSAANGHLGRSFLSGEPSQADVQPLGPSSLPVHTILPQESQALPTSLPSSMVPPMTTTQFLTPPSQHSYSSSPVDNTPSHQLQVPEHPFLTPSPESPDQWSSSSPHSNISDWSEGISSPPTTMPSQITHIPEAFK
measured endpoint: IC50 (µM)

| input smiles | assay target | quantity unit | readout value |
| --- | --- | --- | --- |
| CO[C@@H]1C[C@H](O[C@H]2CC[C@@]3(C)[C@H](CC[C@@H]4[C@@H]3CC[C@]3(C)[C@@H](C5=CC(=O)OC5)[C@@H](OC(C)=O)C[C@]43O)C2)O[C@H](C)[C@@H]1O | Neurogenic locus notch homolog protein 1 (Mus musculus) | µM | 2.7 |
| CO[C@H]1C[C@H](O[C@H]2CC[C@@]3(C)[C@H](CC[C@@H]4[C@@H]3CC[C@]3(C)[C@@H](C5=CC(=O)OC5)[C@@H](O)C[C@]43O)C2)O[C@@H](C)[C@@H]1O | Neurogenic locus notch homolog protein 1 (Mus musculus) | µM | 2.5 |
| CO[C@H]1C[C@H](O[C@H]2CC[C@@]3(C)[C@H](CC[C@@H]4[C@@H]3CC[C@]3(C)[C@@H](C5=CC(=O)OC5)CC[C@]43O)C2)O[C@@H](O)[C@@H]1O | Neurogenic locus notch homolog protein 1 (Mus musculus) | µM | 2.7 |
| CO[C@@H]1C[C@H](O[C@H]2CC[C@@]3(C)[C@H](CC[C@@H]4[C@@H]3CC[C@]3(C)[C@@H](C5=CC(=O)OC5)CC[C@]43O)C2)O[C@H](C)[C@@H]1O | Neurogenic locus notch homolog protein 1 (Mus musculus) | µM | 4.2 |
| CO[C@H]1C[C@H](O[C@H]2CC[C@@]3(C)[C@H](CC[C@@H]4[C@@H]3CC[C@]3(C)[C@@H](C5=CC(=O)OC5)[C@@H](OC(C)=O)C[C@]43O)C2)O[C@@H](C)[C@@H]1O | Neurogenic locus notch homolog protein 1 (Mus musculus) | µM | 0.12 |
